- PROTOCOL DESCRIPTION: Antioxidant activity assessed as galvinoxyl radical scavenging activity by measuring second order rate constant by UV-vis spectrometric analysis
- Format: functional
Listed here: items and their measured K.

O=c1c(O)c(-c2ccc(O)c(O)c2)oc2cc(O)ccc12    7.58 ×10¹ /M/s
Cc1c(-c2oc3cc(O)ccc3c(=O)c2O)ccc(O)c1O    1.55 ×10² /M/s

# molecule Cc1cc(-c2oc3cc(O)ccc3c(=O)c2O)cc(O)c1O ; its K = 1.66 ×10⁵ /M/s

# molecule Cc1cc(-c2oc3cc(O)ccc3c(=O)c2O)c(C)c(O)c1O ; its K = 1.58 ×10³ /M/s
